# Assay comment: probe aLefty2 binding to arrayed compounds – biochemical, biotinylated probe, 635/667 nm fluorescence, primary screen (AID 1094);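 note: score merges spot fluorescence near 667 nm with spot signal-to-noise ratio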
# Condition summary: small-molecule microarray, higher = more signal
Experimental endpoint: composite z-score
I'd appreciate a reply containing only the number, no unit.

So for [N-]=[N+]=NCc1ccccc1C[C@@]1(C(=O)NCC(O)CO)N=C(c2ccc(OCCCO)cc2)O[C@@H]1c1ccccc1 (some centres undefined) , the logged composite z-score turned out to be 0.202

So for "[N-]=[N+]=NCc1ccccc1[C@@H]1OC(c2ccc(OCCCO)cc2)=N[C@]1(CCS(=O)(=O)c1ccccc1)C(N)=O" , the logged composite z-score turned out to be 0.308

So for O=C1C2C=CC(C(O)c3ccc4c(c3)OCO4)N(Nc3ccc([N+](=O)[O-])cc3)C2C(=O)N1c1ccccc1 (centres undefined) , the logged composite z-score turned out to be -0.222

So for "O=C1O[C@H](c2ccccc2)[C@H](c2ccccc2)N2[C@H]1[C@@H](C(=O)N1CCN(c3ncccn3)CC1)[C@]1(C(=O)Nc3ccc(C#CC4=CCCCC4)cc31)[C@H]2c1ccccc1OCCO" , the logged composite z-score turned out to be 0.276

So for COc1cc2c(cc1O)C(c1cccs1)N(Cc1cccc(OC(F)(F)F)c1)CC2 (centres undefined) , the logged composite z-score turned out to be -0.0785

So for CCCCC(O)C1C=CC2C(=O)N(C)C(=O)C2N1N1CCCCC1 (centres undefined) , the logged composite z-score turned out to be 0.365

So for "COc1cc(CO)cc(I)c1O[C@H]1C=C(C(=O)NCCO)C[C@@H](NC[C@@H]2CCCO2)[C@@H]1O" , the logged composite z-score turned out to be -0.17

So for "O=C1[C@H]2C=C(I)[C@H](C[C@@H]2OCCCCO)[C@@]12CO2" , the logged composite z-score turned out to be -0.0534

So for "COC(=O)[C@@]1(Cc2ccc(OC)cc2)[C@H]2c3cc(C(=O)N4CCCC4)n(Cc4nc5ccccc5[nH]4)c3C[C@H]2CN1C(=O)c1ccccc1" , the logged composite z-score turned out to be 0.759

So for "[N-]=[N+]=Nc1ccccc1[C@H]1OC(c2ccc(OCCCO)cc2)=N[C@@]1(CCS(=O)(=O)c1ccccc1)C(=O)NCc1ccccc1" , the logged composite z-score turned out to be 0.154

So for "COCCCNC(=O)[C@@H]1c2ccccc2C(=O)N(Cc2ccccc2OC)[C@H]1c1ccc(CO)cc1" , the logged composite z-score turned out to be -0.157

So for "COc1ccc(C(=O)Nc2ccc(CN3C(=O)[C@]4(O[C@H](CC(=O)N5CCC[C@H]5CO)[C@@H]([Si](C)(C)c5ccc(OC)cc5)[C@@H]4C)c4ccccc43)cc2)cc1" , the logged composite z-score turned out to be -0.124

So for "COC(=O)[C@@]1(Cc2ccccc2)[C@H]2c3cc(C(=O)N(C)C)n(CCc4c[nH]c5ccc(O)cc45)c3C[C@H]2CN1C(=O)c1ccccc1" , the logged composite z-score turned out to be 0.583

So for "C=C(CCCC)/C(=C/C[C@H](OC(C)=O)c1ccccc1OCCO)c1cnc2ccccc2c1" , the logged composite z-score turned out to be -0.235

So for "COCCOC(=O)N1C(=O)[C@@]2(c3cc(C#CC4=CCCCC4)ccc31)[C@H](C(N)=O)[C@H]1C(=O)O[C@H](c3ccccc3)[C@H](c3ccccc3)N1[C@@H]2c1ccc(O)cc1" , the logged composite z-score turned out to be 0.725

So for "COC(=O)[C@@]1(Cc2ccc(F)cc2)[C@H]2c3cc(C(=O)N(C)C)n(Cc4cc(C)n(C)n4)c3C[C@H]2CN1C(=O)c1ccccc1" , the logged composite z-score turned out to be 0.629

So for "O[C@@H](Cc1ccccc1)[C@@H](/C=C/C1CC1)NCc1cccc(Cl)c1" , the logged composite z-score turned out to be 0.0558

So for CCOc1ccc(N2C(=O)CSC2c2cccc([N+](=O)[O-])c2)cc1 (centres undefined) , the logged composite z-score turned out to be -0.0555

So for "COc1ccc(NC(=O)O[C@H]2[C@H](OC(=O)c3cc4ccccc4[nH]3)[C@@H](OC(=O)c3cc4ccccc4[nH]3)[C@@H](OC)O[C@@H]2CO)cc1" , the logged composite z-score turned out to be -0.007

So for "COc1ccc([Si](C)(C)[C@H]2[C@H](CCn3cc([C@H](O)c4ccccc4)nn3)O[C@@]3(C(=O)N(C)c4ccccc43)[C@@H]2C)cc1" , the logged composite z-score turned out to be -0.0317

So for CCCCN1CC=CC23O[C@@H]4C=CCCOC(=O)C4[C@H]2C(=O)N(CCCCCO)[C@@H]3C1=O (some centres undefined) , the logged composite z-score turned out to be -0.168

So for "CCOC(=O)C1=C[C@@H](C(C)C)N(S(=O)(=O)c2ccc(C)cc2)[C@H]1c1ccccc1F" , the logged composite z-score turned out to be 0.142

So for "C#CCN1[C@H](/C=C/C2CC2)[C@H](Cc2ccccc2)OC(=O)[C@@H]1Cc1ccccc1" , the logged composite z-score turned out to be -0.102

So for CC(C)N1CC=CC23O[C@@H]4C=CCOC(=O)[C@@H]4[C@H]2C(=O)N(CCCCCO)[C@@H]3C1=O (some centres undefined) , the logged composite z-score turned out to be -0.137

So for "COCCOC(=O)N1C(=O)[C@@]2(c3cc(C#CCCO)ccc31)[C@H](c1ccc(O)cc1)N1[C@H](c3ccccc3)[C@H](c3ccccc3)OC(=O)[C@H]1[C@@H]2C(=O)N1CCN(c2ncccn2)CC1" , the logged composite z-score turned out to be 0.837

So for "CC(C)CNC(=O)[C@@]1(Cc2ccccc2I)c2ccccc2C(=O)N(Cc2ccccc2C(F)(F)F)[C@H]1c1ccc(CO)cc1" , the logged composite z-score turned out to be -0.101

So for "CCCC[C@H]1C[C@@H]1[C@@H]1N(P(=O)(c2ccccc2)c2ccccc2)C[C@@](O)(c2ccccc2)CC12CC2" , the logged composite z-score turned out to be 0.356

So for "C=CCN1Cc2ccccc2[C@@H]2OC(c3ccc(OCCCO)cc3)=N[C@]2(CCS(=O)(=O)c2ccccc2)C1=O" , the logged composite z-score turned out to be 0.0642

So for N#Cc1ccc(C(O)C2C=CC3C(=O)N(c4ccccc4)C(=O)C3N2Nc2ccccc2F)cc1 (centres undefined) , the logged composite z-score turned out to be -0.113
